# Target System: Poly(ADP-ribose) glycohydrolase [448-976,L473S,N479S,S802A,R811K,M841I,S858P,I916T,T924D,D927K,C963S,A967T] (UniProt Q86W56, A967T/C963S/D927K/I916T/L473S/M841I/N479S/R811K/S802A/S858P/T924D)
# Construct: 448-976
# Sequence (Q86W56 448-976 L473S/N479S/S802A/R811K/M841I/S858P/I916T/T924D/D927K/C963S/A967T): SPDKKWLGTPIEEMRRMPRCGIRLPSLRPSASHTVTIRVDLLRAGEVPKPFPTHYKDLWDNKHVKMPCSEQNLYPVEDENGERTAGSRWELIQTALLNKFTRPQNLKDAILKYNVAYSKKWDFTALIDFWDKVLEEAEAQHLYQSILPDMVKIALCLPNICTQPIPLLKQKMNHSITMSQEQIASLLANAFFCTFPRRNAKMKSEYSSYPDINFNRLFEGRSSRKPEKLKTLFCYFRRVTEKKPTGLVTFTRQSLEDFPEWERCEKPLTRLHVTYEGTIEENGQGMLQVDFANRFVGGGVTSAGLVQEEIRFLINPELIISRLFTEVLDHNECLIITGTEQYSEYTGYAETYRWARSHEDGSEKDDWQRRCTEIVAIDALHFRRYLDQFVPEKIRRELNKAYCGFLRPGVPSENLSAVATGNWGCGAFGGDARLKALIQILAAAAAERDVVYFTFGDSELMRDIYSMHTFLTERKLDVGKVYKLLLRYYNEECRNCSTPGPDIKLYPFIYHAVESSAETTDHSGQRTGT
# Protocol Details: PARG enzymatic IC50 assay
Measured Endpoint: pIC50
Hey, just a heads up that pIC50 is the negative log base 10 of the concentration in molar.

Record summary for C[C@H]1CN(c2cc(S(=O)(=O)NC3(C)CC3)cn3c(-c4nnc(C(F)F)s4)ncc23)C[C@H](C)N1 : reported pIC50 = 6.96
